Source: ChEMBL document CHEMBL5506069

tested on: Candida parapsilosis; experiment: Antifungal activity against Candida parapsilosis ATCC 22019 assessed as inhibition of fungal growth incubated for 24 hrs by CLSI based microbroth dilution method; format: functional; details: Lodderomyces parapsilosis
Provide the reported MIC of each item.
Field: numeric (µM). Do not append units.

Checklist item: MIC tested on Candida parapsilosis, entry `CCCCc1nc(Cl)c(/C=N/Nc2ccc3c4c(cccc24)C(=O)N(CCO)C3=O)n1Cc1ccccc1F` , value? 15

API: value(readout=MIC, system=Candida parapsilosis) for record `O=C1c2cccc3c(N/N=C/c4cccc(O)c4)ccc(c23)C(=O)N1CCO` 341

Enter reported MIC observed with Candida parapsilosis for `NN1C(=O)c2cccc3c(N/N=C/c4ccc([N+](=O)[O-])o4)ccc(c23)C1=O` 21

MIC of `CCN1C(=O)c2cccc3c(N/N=C/c4ccc([N+](=O)[O-])o4)ccc(c23)C1=O` on Candida parapsilosis? 168

What is its MIC for Candida parapsilosis? Entry: `CCCCc1nc(Cl)c(/C=N/Nc2ccc3c4c(cccc24)C(=O)N(CCO)C3=O)n1CC` 548

Param readout= MIC; system= Candida parapsilosis; entry= `CCCCc1nc(Cl)c(/C=N/Nc2ccc3c4c(cccc24)C(=O)N(CCO)C3=O)n1CCC` ; returns value. 266

Reported MIC for Candida parapsilosis, given `CCCCc1nc(Cl)c(/C=N/Nc2ccc3c4c(cccc24)C(=O)N(CCO)C3=O)n1CC1CCCCC1` ? 60

Write down the reported MIC of `O=C1c2cccc3c(N/N=C/c4cncs4)ccc(c23)C(=O)N1CCO` , test system: Candida parapsilosis. 22

Tell me reported MIC for `CCCCCn1c(CCCC)nc(Cl)c1/C=N/Nc1ccc2c3c(cccc13)C(=O)N(CCO)C2=O` , tested with Candida parapsilosis. 251
